Hey, just so you know, these numbers are from ChEMBL document CHEMBL1152416.

test: Inhibition of trypsin-like activity of proteasome from human PBMC after 30 mins by fluorimetry; format: subcellular
Where a SMILES comes first, the peptide text is derived from it. The star is where a group is joined. Cbz = O=C(OCc1ccccc1)*; X1 = C=CO*

- compound: "C=COC(=O)[C@H](CC(C)C)NC(=O)[C@H](CC(C)C)NC(=O)[C@H](CC(C)C)NC(=O)CCCCCCNC(=O)OCc1ccccc1"
  IC50: "> 10 µM"
- compound: "C=COC(=O)[C@H](CC(C)C)NC(=O)[C@H](CO)NC(=O)[C@@H](NC(=O)CCCNC(=O)OCc1ccccc1)C(C)C"
  IC50: "> 10 µM"
- compound: "C=COC(=O)[C@H](CC(C)C)NC(=O)[C@H](CC(C)C)NC(=O)[C@H](CC(C)C)NC(=O)CNC(=O)OCc1ccccc1 (Cbz-GLLL-X1)"
  IC50: "> 10 µM"
- compound: "C=COC(=O)[C@H](CC(C)C)NC(=O)[C@H](CO)NC(=O)[C@@H](NC(=O)CCCCCCCNC(=O)OCc1ccccc1)C(C)C"
  IC50: "> 10 µM"
- compound: "C=COC(=O)[C@H](CC(C)C)NC(=O)[C@H](CO)NC(=O)[C@@H](NC(=O)CCCCNC(=O)OCc1ccccc1)C(C)C"
  IC50: "> 10 µM"
- compound: "C=COC(=O)[C@H](CC(C)C)NC(=O)[C@H](CC(C)C)NC(=O)[C@H](CC(C)C)NC(=O)CCCCCNC(=O)OCc1ccccc1"
  IC50: "5.98 µM"
- compound: "C=COC(=O)[C@H](CC(C)C)NC(=O)[C@H](CO)NC(=O)[C@@H](NC(=O)CCCCCNC(=O)OCc1ccccc1)C(C)C"
  IC50: "> 10 µM"
- compound: "C=COC(=O)[C@H](CC(C)C)NC(=O)[C@H](CC(C)C)NC(=O)[C@H](CC(C)C)NC(=O)CCCCCCCNC(=O)OCc1ccccc1"
  IC50: "> 10 µM"
- compound: "C=COC(=O)[C@H](CC(C)C)NC(=O)[C@H](CO)NC(=O)[C@@H](NC(=O)CNC(=O)OCc1ccccc1)C(C)C (Cbz-GVSL-X1)"
  IC50: "> 10 µM"
- compound: "C=COC(=O)[C@H](CC(C)C)NC(=O)[C@H](CC(C)C)NC(=O)[C@H](CC(C)C)NC(=O)CCCCNC(=O)OCc1ccccc1"
  IC50: "6.05 µM"
- compound: "CC[C@H](C)[C@H](NC(=O)[C@H]([C@@H](C)CC)N(C)C(C)=O)C(=O)N[C@H](C(=O)N[C@@H](CC(C)C)C(=O)[C@@]1(C)CO1)[C@@H](C)O"
  IC50: "0.758 µM"
- compound: "C=COC(=O)[C@H](CC(C)C)NC(=O)[C@H](CC(C)C)NC(=O)[C@H](CC(C)C)NC(=O)CCNC(=O)OCc1ccccc1"
  IC50: "> 10 µM"
- compound: "C=COC(=O)[C@H](CC(C)C)NC(=O)[C@H](CO)NC(=O)[C@@H](NC(=O)CCCCCCNC(=O)OCc1ccccc1)C(C)C"
  IC50: "> 10 µM"
- compound: "C=COC(=O)[C@H](CC(C)C)NC(=O)[C@H](CC(C)C)NC(=O)[C@H](CC(C)C)NC(=O)CCCNC(=O)OCc1ccccc1"
  IC50: "7.23 µM"
- compound: "C=COC(=O)[C@H](CC(C)C)NC(=O)[C@H](CO)NC(=O)[C@@H](NC(=O)CCNC(=O)OCc1ccccc1)C(C)C"
  IC50: "> 10 µM"
- compound: "CC(C)C[C@@H](C=O)NC(=O)[C@H](CC(C)C)NC(=O)[C@H](CC(C)C)NC(=O)OCc1ccccc1 [MG-132] (Cbz-Leu-Leu-Leu-aldehyde)"
  IC50: "0.911 µM"

---

test: Inhibition of post acidic activity of proteasome from human PBMC after 30 mins by cell based assay; conditions: 0.5 h
measure: IC50

- molecular_string: "C=COC(=O)[C@H](CC(C)C)NC(=O)[C@H](CC(C)C)NC(=O)[C@H](CC(C)C)NC(=O)CCNC(=O)OCc1ccccc1"
  data_value: "320 nM"
- molecular_string: "C=COC(=O)[C@H](CC(C)C)NC(=O)[C@H](CC(C)C)NC(=O)[C@H](CC(C)C)NC(=O)CCCCNC(=O)OCc1ccccc1"
  data_value: "128 nM"
- molecular_string: "C=COC(=O)[C@H](CC(C)C)NC(=O)[C@H](CO)NC(=O)[C@@H](NC(=O)CCCCCNC(=O)OCc1ccccc1)C(C)C"
  data_value: "410 nM"
- molecular_string: "C=COC(=O)[C@H](CC(C)C)NC(=O)[C@H](CO)NC(=O)[C@@H](NC(=O)CCCCNC(=O)OCc1ccccc1)C(C)C"
  data_value: "450 nM"
- molecular_string: "C=COC(=O)[C@H](CC(C)C)NC(=O)[C@H](CO)NC(=O)[C@@H](NC(=O)CCCCCCNC(=O)OCc1ccccc1)C(C)C"
  data_value: "237 nM"
- molecular_string: "C=COC(=O)[C@H](CC(C)C)NC(=O)[C@H](CO)NC(=O)[C@@H](NC(=O)CCCCCCCNC(=O)OCc1ccccc1)C(C)C"
  data_value: "219 nM"
- molecular_string: "C=COC(=O)[C@H](CC(C)C)NC(=O)[C@H](CC(C)C)NC(=O)[C@H](CC(C)C)NC(=O)CCCCCNC(=O)OCc1ccccc1"
  data_value: "86 nM"
- molecular_string: "C=COC(=O)[C@H](CC(C)C)NC(=O)[C@H](CC(C)C)NC(=O)[C@H](CC(C)C)NC(=O)CCCNC(=O)OCc1ccccc1"
  data_value: "330 nM"

---

assay: Inhibition of post acidic activity of proteasome from human PBMC after 30 mins by fluorimetry; format: subcellular
pIC50: −log10 of the molar value. Where a SMILES comes first, the peptide text is derived from it. The star is where a group is joined. Cbz = O=C(OCc1ccccc1)*; X1 = C=CO*
measure: pIC50

- compound: "C=COC(=O)[C@H](CC(C)C)NC(=O)[C@H](CO)NC(=O)[C@@H](NC(=O)CCCCCCNC(=O)OCc1ccccc1)C(C)C"
  measure: "pIC50"
  result_operator: "="
  data_value: 6.73
- compound: "C=COC(=O)[C@H](CC(C)C)NC(=O)[C@H](CO)NC(=O)[C@@H](NC(=O)CCCNC(=O)OCc1ccccc1)C(C)C"
  measure: "pIC50"
  result_operator: "="
  data_value: 6.13
- compound: "C=COC(=O)[C@H](CC(C)C)NC(=O)[C@H](CC(C)C)NC(=O)[C@H](CC(C)C)NC(=O)CCNC(=O)OCc1ccccc1"
  measure: "pIC50"
  result_operator: "="
  data_value: 6.67
- compound: "C=COC(=O)[C@H](CC(C)C)NC(=O)[C@H](CC(C)C)NC(=O)[C@H](CC(C)C)NC(=O)CCCCNC(=O)OCc1ccccc1"
  measure: "pIC50"
  result_operator: "="
  data_value: 7.11
- compound: "C=COC(=O)[C@H](CC(C)C)NC(=O)[C@H](CO)NC(=O)[C@@H](NC(=O)CCCCNC(=O)OCc1ccccc1)C(C)C"
  measure: "pIC50"
  result_operator: "="
  data_value: 6.64
- compound: "CC(C)C[C@@H](C=O)NC(=O)[C@H](CC(C)C)NC(=O)[C@H](CC(C)C)NC(=O)OCc1ccccc1 [MG-132] (Cbz-Leu-Leu-Leu-aldehyde)"
  measure: "pIC50"
  result_operator: "<"
  data_value: 5.00
- compound: "C=COC(=O)[C@H](CC(C)C)NC(=O)[C@H](CO)NC(=O)[C@@H](NC(=O)CCNC(=O)OCc1ccccc1)C(C)C"
  measure: "pIC50"
  result_operator: "="
  data_value: 6.08
- compound: "C=COC(=O)[C@H](CC(C)C)NC(=O)[C@H](CC(C)C)NC(=O)[C@H](CC(C)C)NC(=O)CCCNC(=O)OCc1ccccc1"
  measure: "pIC50"
  result_operator: "="
  data_value: 6.68
- compound: "C=COC(=O)[C@H](CC(C)C)NC(=O)[C@H](CC(C)C)NC(=O)[C@H](CC(C)C)NC(=O)CNC(=O)OCc1ccccc1 (Cbz-GLLL-X1)"
  measure: "pIC50"
  result_operator: "="
  data_value: 6.26
- compound: "CC[C@H](C)[C@H](NC(=O)[C@H]([C@@H](C)CC)N(C)C(C)=O)C(=O)N[C@H](C(=O)N[C@@H](CC(C)C)C(=O)[C@@]1(C)CO1)[C@@H](C)O"
  measure: "pIC50"
  result_operator: "<"
  data_value: 5.00
- compound: "C=COC(=O)[C@H](CC(C)C)NC(=O)[C@H](CO)NC(=O)[C@@H](NC(=O)CCCCCCCNC(=O)OCc1ccccc1)C(C)C"
  measure: "pIC50"
  result_operator: "="
  data_value: 6.76
- compound: "C=COC(=O)[C@H](CC(C)C)NC(=O)[C@H](CC(C)C)NC(=O)[C@H](CC(C)C)NC(=O)CCCCCCNC(=O)OCc1ccccc1"
  measure: "pIC50"
  result_operator: "="
  data_value: 6.78
- compound: "C=COC(=O)[C@H](CC(C)C)NC(=O)[C@H](CO)NC(=O)[C@@H](NC(=O)CNC(=O)OCc1ccccc1)C(C)C (Cbz-GVSL-X1)"
  measure: "pIC50"
  result_operator: "="
  data_value: 5.54
- compound: "C=COC(=O)[C@H](CC(C)C)NC(=O)[C@H](CC(C)C)NC(=O)[C@H](CC(C)C)NC(=O)CCCCCNC(=O)OCc1ccccc1"
  measure: "pIC50"
  result_operator: "="
  data_value: 7.28
- compound: "C=COC(=O)[C@H](CC(C)C)NC(=O)[C@H](CO)NC(=O)[C@@H](NC(=O)CCCCCNC(=O)OCc1ccccc1)C(C)C"
  measure: "pIC50"
  result_operator: "="
  data_value: 6.70
- compound: "C=COC(=O)[C@H](CC(C)C)NC(=O)[C@H](CC(C)C)NC(=O)[C@H](CC(C)C)NC(=O)CCCCCCCNC(=O)OCc1ccccc1"
  measure: "pIC50"
  result_operator: "="
  data_value: 6.31
